# MEASURED_TARGET: LRRK2 G2019S (Homo sapiens, UniProt Q5S007, G2019S)
# Sequence (Q5S007 whole entry G2019S): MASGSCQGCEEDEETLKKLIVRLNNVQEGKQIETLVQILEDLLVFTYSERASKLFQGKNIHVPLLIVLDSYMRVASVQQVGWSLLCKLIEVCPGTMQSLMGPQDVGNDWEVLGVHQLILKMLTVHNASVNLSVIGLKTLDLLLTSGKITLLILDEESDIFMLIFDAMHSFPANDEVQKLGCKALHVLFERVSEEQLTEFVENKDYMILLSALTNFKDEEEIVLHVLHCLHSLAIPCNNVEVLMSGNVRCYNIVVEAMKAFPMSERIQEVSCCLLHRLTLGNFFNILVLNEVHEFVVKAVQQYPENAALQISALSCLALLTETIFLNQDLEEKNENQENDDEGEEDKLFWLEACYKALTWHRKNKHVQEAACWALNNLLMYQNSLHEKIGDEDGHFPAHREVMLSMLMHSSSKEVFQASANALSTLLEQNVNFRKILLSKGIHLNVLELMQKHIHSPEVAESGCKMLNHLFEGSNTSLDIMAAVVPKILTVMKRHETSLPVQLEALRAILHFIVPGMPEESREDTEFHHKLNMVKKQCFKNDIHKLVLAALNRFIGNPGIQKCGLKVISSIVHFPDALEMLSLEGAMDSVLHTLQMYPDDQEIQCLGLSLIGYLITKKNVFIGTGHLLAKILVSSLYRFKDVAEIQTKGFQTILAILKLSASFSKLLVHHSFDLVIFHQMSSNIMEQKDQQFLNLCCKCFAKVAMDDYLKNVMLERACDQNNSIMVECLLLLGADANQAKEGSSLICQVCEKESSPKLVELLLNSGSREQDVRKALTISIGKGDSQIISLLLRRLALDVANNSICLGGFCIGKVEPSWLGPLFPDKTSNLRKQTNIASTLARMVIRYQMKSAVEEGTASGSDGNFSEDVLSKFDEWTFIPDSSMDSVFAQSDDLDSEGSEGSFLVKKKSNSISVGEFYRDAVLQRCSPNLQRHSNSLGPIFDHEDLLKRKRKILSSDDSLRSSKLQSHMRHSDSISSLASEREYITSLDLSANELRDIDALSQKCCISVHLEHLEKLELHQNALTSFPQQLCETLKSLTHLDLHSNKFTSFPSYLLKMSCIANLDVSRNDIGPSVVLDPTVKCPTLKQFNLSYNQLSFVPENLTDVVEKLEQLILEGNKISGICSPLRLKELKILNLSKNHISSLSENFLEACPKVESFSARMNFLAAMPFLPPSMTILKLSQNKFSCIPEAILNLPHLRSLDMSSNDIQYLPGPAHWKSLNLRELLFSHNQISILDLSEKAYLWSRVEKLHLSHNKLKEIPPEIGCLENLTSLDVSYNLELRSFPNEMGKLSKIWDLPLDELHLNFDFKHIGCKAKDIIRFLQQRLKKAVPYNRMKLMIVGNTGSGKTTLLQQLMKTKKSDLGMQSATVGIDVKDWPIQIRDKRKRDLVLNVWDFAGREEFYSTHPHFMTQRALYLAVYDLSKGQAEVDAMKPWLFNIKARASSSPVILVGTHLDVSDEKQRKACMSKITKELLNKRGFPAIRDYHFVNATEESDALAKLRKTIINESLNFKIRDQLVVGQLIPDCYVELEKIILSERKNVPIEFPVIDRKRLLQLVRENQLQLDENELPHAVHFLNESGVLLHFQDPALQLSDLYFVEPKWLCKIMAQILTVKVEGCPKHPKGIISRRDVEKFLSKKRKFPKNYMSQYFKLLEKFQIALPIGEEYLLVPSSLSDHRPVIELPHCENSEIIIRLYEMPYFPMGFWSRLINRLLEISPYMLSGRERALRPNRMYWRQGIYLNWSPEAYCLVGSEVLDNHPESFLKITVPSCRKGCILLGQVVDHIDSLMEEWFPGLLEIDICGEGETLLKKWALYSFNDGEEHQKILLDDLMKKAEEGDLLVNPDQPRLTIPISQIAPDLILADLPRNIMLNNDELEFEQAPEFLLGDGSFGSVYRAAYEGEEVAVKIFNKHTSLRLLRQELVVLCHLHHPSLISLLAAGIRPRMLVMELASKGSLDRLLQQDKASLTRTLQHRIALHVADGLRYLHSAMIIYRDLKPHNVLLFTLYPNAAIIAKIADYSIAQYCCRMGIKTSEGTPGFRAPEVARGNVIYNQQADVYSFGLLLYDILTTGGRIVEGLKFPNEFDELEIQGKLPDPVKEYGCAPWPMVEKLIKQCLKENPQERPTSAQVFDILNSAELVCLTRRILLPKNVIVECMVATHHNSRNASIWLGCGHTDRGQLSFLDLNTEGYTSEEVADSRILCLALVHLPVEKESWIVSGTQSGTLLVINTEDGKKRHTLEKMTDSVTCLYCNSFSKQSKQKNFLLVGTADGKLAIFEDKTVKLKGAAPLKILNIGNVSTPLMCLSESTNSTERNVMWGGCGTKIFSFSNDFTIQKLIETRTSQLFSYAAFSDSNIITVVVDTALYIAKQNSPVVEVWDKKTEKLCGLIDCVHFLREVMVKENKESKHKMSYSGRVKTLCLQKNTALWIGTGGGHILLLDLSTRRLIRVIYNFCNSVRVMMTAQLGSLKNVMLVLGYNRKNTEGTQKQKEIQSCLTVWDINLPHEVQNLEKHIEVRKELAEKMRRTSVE
# TEST_DESCRIPTION: LRRK2 G2019S TR-FRET kinase assay (LRRKtide substrate)
# CONDITION_CONTEXT: LRRK2 G2019S enzyme 5 nM, 134 μM ATP, 60 minute reaction, 23° C.
# Procedure: Materials: • LRRK2 G2019S enzyme • Substrate (LRRKtide) • ATP • TR-FRET dilution buffer • pLRRKtide antibody • 384-well assay plate • DMSO Enzyme Reaction Conditions 23° C. reaction temperature 10 μL total reaction volume Detection Reaction Conditions 1×TR-FRET dilution buffer 2 nM antibody • 23° C. reaction temperature • 10 μL total reaction volume Compounds are prepared by initially diluting to 1 mM with DMSO. […]
pIC50: −log10 of the molar value.
Below is a list of entries, each paired with its recorded pIC50 value.

COMPOUND: CCNc1nc(Nc2cn(C3C[C@H]3C#N)nc2C2CC2)ncc1C(F)(F)F (single isomer, unassigned)
pIC50: > 7.52

COMPOUND: CCNc1nc(Nc2cnn(C3C[C@@H]3C#N)c2C)ncc1C(F)(F)F (single isomer, unassigned)
pIC50: > 7.52

COMPOUND: CCNc1nc(Nc2cnn(C3C[C@H]3C#N)c2C)ncc1C(F)(F)F (single isomer, unassigned)
pIC50: > 7.52

COMPOUND: CNc1nc(Nc2cn(C3C[C@@]3(C)C#N)nc2C)ncc1C(F)(F)F (single isomer, unassigned)
pIC50: > 7.52

COMPOUND: CCNc1nc(Nc2cn(C3C[C@@]3(C)C#N)nc2C)ncc1Br (single isomer, unassigned)
pIC50: > 7.52

COMPOUND: CCNc1nc(Nc2cn(C3C[C@@]3(C)C#N)nc2C2CC2)ncc1C(F)(F)F (single isomer, unassigned)
pIC50: > 7.52

Q) Look up and state reported pIC50 for CCNc1nc(Nc2cn(C3C[C@@]3(C)C#N)nc2C)ncc1C(F)(F)F (single isomer, unassigned)
A) > 7.52

Q) Look up and state reported pIC50 for CNc1nc(Nc2cn(C3C[C@]3(C)C#N)nc2C)ncc1C(F)(F)F (single isomer, unassigned)
A) > 7.52

Q) Look up and state reported pIC50 for CCNc1nc(Nc2cn(C3C[C@]3(C)C#N)nc2C)ncc1C(F)(F)F (single isomer, unassigned)
A) > 7.52

Q) Look up and state reported pIC50 for Cc1nn(C2C[C@@]2(C)C#N)cc1Nc1ncc(C(F)(F)F)c(NC2CC2)n1 (single isomer, unassigned)
A) > 7.52

Q) Look up and state reported pIC50 for Cc1c(Nc2ncc(C(F)(F)F)c(NC3CC3)n2)cnn1C1C[C@]1(C)C#N (single isomer, unassigned)
A) > 7.52

Q) Look up and state reported pIC50 for Cc1nn(C2C[C@]2(C)C#N)cc1Nc1ncc(C(F)(F)F)c(NC2CC2)n1 (single isomer, unassigned)
A) > 7.52

Q) Look up and state reported pIC50 for CNc1nc(Nc2cn(C3C[C@@]3(C)C#N)nc2C2CC2)ncc1C(F)(F)F (single isomer, unassigned)
A) > 7.52

Q) Look up and state reported pIC50 for CCNc1nc(Nc2cn(C3C[C@]3(C)C#N)nc2C)ncc1Br (single isomer, unassigned)
A) > 7.52
